Hello, the source for this data is the supplement of paper PMC10065799, in case you need it.

molecular target: Grb2 SH2 (UniProt P62993); assay: SH2 binding enrichment of the phosphorylated peptide, bacterial display (enrichment ratio); higher = better substrate or ligand; peptides without Tyr show the background;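 note: peptide library displayed on the E. coli surface as eCPX fusions, selected cells deep-sequenced, score is each peptide's frequency after selection divided by its frequency in the input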
Metric name: SH2 binding enrichment

# count of solved cases: 5
>  <Sequence code>
ESDFPYSSSFE [SRPK2_Y427_T426P_YF]

>  <Tgt>
Grb2 SH2 (UniProt P62993)

>  <SH2 binding enrichment>
0.738

$$$$
>  <Sequence code>
QKKEEYKMALY [F8_Y1990_R1985Q]

>  <Tgt>
Grb2 SH2 (UniProt P62993)

>  <SH2 binding enrichment>
0.629

$$$$
>  <Sequence code>
EFKKHYGFSLF [ANXA3_Y295_YF]

>  <Tgt>
Grb2 SH2 (UniProt P62993)

>  <SH2 binding enrichment>
0.815

$$$$
>  <Sequence code>
RPLVVYPWTQR [HBB_Y36_L32P]

>  <Tgt>
Grb2 SH2 (UniProt P62993)

>  <SH2 binding enrichment>
0.809

$$$$
>  <Sequence code>
YQCKHYACIRQ [TIMP3_Y182_S179C]

>  <Tgt>
Grb2 SH2 (UniProt P62993)

>  <SH2 binding enrichment>
1.74

$$$$

(a) APQYTYTQGGQ [FLNA_Y1763_A1764T]
(b) MGSFNYLGFPR [SPTLC2_Y178_A182P_YF]
q: Please indicate which has the smaller reported SH2 binding enrichment: a , or b . Your choice should be expressed through its label.
a: b
